Cited source for all entries: patent US11964971B2

Tested on: MDR1
Experiment: in vitro
Settings: dog, MDCK-MDR1, pH 7.4, MDCK-MDR1: Papp B-A (10^−6, cm/s)
This listing pairs molecules with measured Papp B→A at 120 min, 5 μM.
Express it in ×10⁻⁶ cm/s; write the number only.

Lookup: Suppose we examine the molecule `Cn1cc(-c2ccc(-c3cnc(N(C4CC4)[C@H]4C[C@]5(C)CC[C@@](C)(N5)[C@H]4F)cn3)c(O)c2)cn1` ; what Papp B→A at 120 min, 5 μM value has been reported?
Found: 16.9

Lookup: Then what about the molecule COc1cc(-c2ccc(-c3cnc(N(C)[C@@H]4CC5CC[C@H](N5)[C@@H]4F)cn3)c(O)c2)cnn1 (single isomer, unassigned) ?
Found: 24.4

Lookup: Then what about the molecule COc1cc(-c2ccc(-c3cnc(N(C)[C@H]4C[C@@H]5CCC(N5)[C@H]4F)cn3)c(O)c2)cnn1 (single isomer, unassigned) ?
Found: 23.9

---

This listing pairs compounds with measured Papp B→A at 120 min, 5 μM.
Tested on: MDR1
Test: in vitro
Conditions: dog, MDCK-MDR1, pH 7.4, MDCK-MDR1: Papp B-A (10^−6, cm/s)
Express it in nm/s; write the number only.

Illustrative cases are given below, each with its answer.
| compound | numeric_readout |
| --- | --- |
| COc1cc(-c2ccc(-c3cnc(N(C)[C@@H]4CC5N[C@H](C4)CC5(F)F)cn3)c(O)c2)cnn1 (single isomer, unassigned) | 430 |
| CN(c1cnc(-c2cc(F)c(C3=CC(F)NC(F)=C3)cc2O)cn1)[C@@H]1C[C@@]2(C)CC[C@](C)(N2)[C@@H]1F (single isomer, unassigned) | 4.5 |

Consider the record given below.
Lookup: Suppose we examine the compound O=c1cc(-c2ccc(-c3cnc(N(C4CC4)[C@@H]4CC5CC[C@H](N5)[C@@H]4F)cn3)c(O)c2)ccn1CF (single isomer, unassigned) ; what Papp B→A at 120 min, 5 μM value has been reported?
Found: 434

---

Test system: MDR1 (P-gp)
Assay: MDCK-MDR1 permeability assay, blood-brain-barrier penetration potential
Conditions: dog, MDCK-MDR1, pH 7.4, MDCK-MDR1 Efflux Ratio
outcome_measure: efflux ratio at 120 min, 5 μM
Lab note: record just the number, no unit beside it.

| compound | efflux ratio at 120 min, 5 μM |
| --- | --- |
| CN(c1cnc(-c2ccc(-c3cn[nH]c3)cc2O)cn1)[C@@H]1C[C@@]2(C)CCC[C@](C)(N2)[C@@H]1F | 4 |
| CN(c1cnc(-c2ccc(-c3cnn(C)c3)cc2O)cn1)[C@H]1C[C@@H]2CCC(N2)[C@H]1F (single isomer, unassigned) | 4 |
| CN(c1cnc(-c2ccc(-c3cn[nH]c3)cc2O)cn1)[C@H]1C[C@]2(C)CC[C@@](C)(N2)[C@H]1F | 10 |
| CNC(=O)/C=C/c1cc(O)c(-c2cnc(N(C)[C@@H]3CC4CC[C@H](N4)[C@@H]3F)cn2)cc1F (single isomer, unassigned) | 30 |
| CN(c1cnc(-c2cc(F)c(-c3cnn(C)c3)cc2O)cn1)[C@@H]1C[C@@]2(C)CC[C@](C)(N2)[C@@H]1F | 3 |

Lookup: Suppose we examine the compound CN(c1cnc(-c2cc3ncn(CC(F)(F)F)c(=O)c3cc2O)cn1)[C@@H]1CC2CCC[C@H](N2)[C@@H]1F (single isomer, unassigned) ; what efflux ratio at 120 min, 5 μM value has been reported?
Found: 71

Lookup: Then what about the compound `CN(c1cnc(-c2cc(F)c(-c3ccn(CF)c(=O)c3)cc2O)cn1)[C@@H]1C[C@H]2CC[C@H](N2)[C@@H]1F` ?
Found: 19

Lookup: Then what about the compound COc1cc(-c2ccc(-c3cnc(N(C)[C@@H]4CC5CC[C@H](N5)[C@@H]4F)cn3)c(O)c2)cnn1 (single isomer, unassigned) ?
Found: 5

Lookup: Then what about the compound `CN(c1cnc(-c2cc3ncn(CC(F)(F)F)c(=O)c3cc2O)cn1)[C@H]1C[C@@H]2CCC[C@@H](N2)[C@H]1F` ?
Found: 56

Lookup: Then what about the compound CN(c1cnc(-c2cc(F)c(C3=CC(F)NC(F)=C3)cc2O)cn1)[C@@H]1C[C@@]2(C)CC[C@](C)(N2)[C@@H]1F (single isomer, unassigned) ?
Found: 1

Lookup: Then what about the compound CN(c1cnc(-c2ccc(-c3cn[nH]c3)cc2O)cn1)[C@H]1CC2CCC[C@@H](N2)[C@H]1F (single isomer, unassigned) ?
Found: 6

Lookup: Then what about the compound COc1cc(-c2cc(O)c(-c3cnc(N(C)[C@H]4C[C@@H]5CCC(N5)[C@H]4F)cn3)cc2F)ncn1 (single isomer, unassigned) ?
Found: 2

Lookup: Then what about the compound COc1cc(-c2cc(O)c(-c3cnc(N(C4CC4)[C@@H]4CC5CC[C@H](N5)[C@@H]4F)cn3)cc2F)ccn1 (single isomer, unassigned) ?
Found: 3

Lookup: Then what about the compound `C[C@]12CC[C@](C)(N1)[C@H](F)[C@H](Oc1cnc(-c3ccc(-c4cn[nH]c4)cc3O)cn1)C2` ?
Found: 4

Lookup: Then what about the compound COc1cc(-c2ccc(-c3cnc(N(C)[C@@H]4CC5CC(F)(F)[C@@H](C4)N5)cn3)c(O)c2)cnn1 (single isomer, unassigned) ?
Found: 5

Lookup: Then what about the compound CN(c1cnc(-c2cc(F)c(-c3cn[nH]c3)cc2O)cn1)[C@@H]1CC2CC[C@H](N2)[C@@H]1F (single isomer, unassigned) ?
Found: 6

---

System: MDR1
Experiment: in vitro
Settings: dog, MDCK-MDR1, pH 7.4, MDCK-MDR1: Papp B-A (10^−6, cm/s)
This listing pairs molecules with measured Papp B→A at 120 min, 5 μM.
Express it in ×10⁻⁶ cm/s; write the number only.

Illustrative cases are given below, each with its answer.
| molecule | Papp B→A at 120 min, 5 μM [×10⁻⁶ cm/s] |
| --- | --- |
| COc1cc(-c2cc(O)c(-c3cnc(N(C)[C@@H]4C[C@@]5(C)CC[C@](C)(N5)[C@@H]4F)cn3)cc2F)cnn1 (single isomer, unassigned) | 49.8 |
| CN(c1cnc(-c2ccc(-c3cc(=O)n(C)cn3)cc2O)cn1)[C@H]1C[C@@H]2CCC(N2)[C@H]1F (single isomer, unassigned) | 51.1 |
| CN(c1cnc(-c2ccc(-c3cc(=O)n(C)cn3)cc2O)cn1)[C@@H]1CC2CC[C@H](N2)[C@@H]1F (single isomer, unassigned) | 52.8 |

Lookup: Suppose we examine the molecule CN(c1cnc(-c2cc(F)c(-c3cnn(CF)c3)cc2O)cn1)[C@@H]1CC2CC[C@H](N2)[C@@H]1F (single isomer, unassigned) ; what Papp B→A at 120 min, 5 μM value has been reported?
Found: 17.2

Lookup: Then what about the molecule Oc1cc(-c2cn[nH]c2)ccc1-c1cnc(O[C@H]2CC3CC[C@@H](N3)[C@H]2F)cn1 (single isomer, unassigned) ?
Found: 33.4

Lookup: Then what about the molecule `CN(c1cnc(-c2ccc(-c3cn[nH]c3)cc2O)cn1)[C@@H]1C[C@@]2(C)CCC[C@](C)(N2)[C@@H]1F` ?
Found: 38.7

---

Test system: MDR1-MDCK cell monolayers
Assay: MDCK-MDR1 permeability assay, blood-brain-barrier penetration potential
Conditions: dog, MDCK-MDR1, 120 min, 5 μM, pH 7.4
This listing pairs molecules with measured MDCK-MDR1 Efflux Ratio.
Lab note: record just the number, no unit beside it.

Illustrative cases are given below, each with its answer.
| molecule | outcome_measure | numeric_readout |
| --- | --- | --- |
| CN(c1cnc(-c2cc(F)c(-c3ccn(C)c(=O)c3)cc2O)cn1)[C@@H]1C[C@@]2(C)CC[C@](C)(N2)[C@@H]1F | MDCK-MDR1 Efflux Ratio | 14 |
| COc1cc(-c2cc(O)c(-c3cnc(N(C)[C@@H]4C[C@@]5(C)CC[C@](C)(N5)[C@@H]4F)cn3)cc2F)cnn1 (single isomer, unassigned) | MDCK-MDR1 Efflux Ratio | 11 |
| CN(c1cnc(-c2cc(F)c(-c3cnn(C)c3)cc2O)cn1)[C@H]1C[C@@H]2CCC(N2)[C@H]1F (single isomer, unassigned) | MDCK-MDR1 Efflux Ratio | 4 |

Consider the record given below.
Lookup: Suppose we examine the molecule Cn1cc(-c2ccc(-c3cnc(N(C4CC4)[C@@H]4CC5CC[C@H](N5)[C@@H]4F)cn3)c(O)c2)cn1 (single isomer, unassigned) ; what MDCK-MDR1 Efflux Ratio value has been reported?
Found: 8

---

This listing pairs molecules with measured MDCK-MDR1: Papp A-B (10^−6, cm/s).
System: MDR1-MDCK cell monolayers
Details: dog, MDCK-MDR1, 120 min, 5 μM, pH 7.4

Lookup: Suppose we examine the molecule CN(c1cnc(-c2cc(F)c(-c3ccn(C)c(=O)c3)cc2O)cn1)[C@@H]1C[C@@]2(C)CC[C@](C)(N2)[C@@H]1F [Compound 62E1] ; what MDCK-MDR1: Papp A-B (10^−6, cm/s) value has been reported?
Found: 2.88 10^−6, cm/s
